# TEST_METHOD_NOTES: Partition coefficient (logP) (HPLC)
# Assay type: physicochemical
# CONDITION: octanol/water
MEASURED_PARAMETER: logP

1. O=C(O)c1ccc(Cc2ccc3c(c2O)C(=O)c2c(O)cccc2C3)cc1; 4.1
2. O=C1c2c(O)cccc2Cc2ccc(CCCc3ccccc3)c(O)c21; 6.44
3. O=C(O)c1ccccc1Cc1ccc2c(c1O)C(=O)c1c(O)cccc1C2; 4.48
4. COc1ccc(C(=O)c2cc(O)c3c(c2)Cc2cccc(O)c2C3=O)cc1; 4.83
5. O=C1c2c(O)cccc2Cc2ccc(Cc3ccc(O)c(O)c3)c(O)c21; 4.01
6. O=C1c2c(O)cccc2Cc2ccc(Cc3ccc(Cl)cc3)c(O)c21; 5.98
7. COc1ccc(Cc2cc(O)c3c(c2)Cc2cccc(O)c2C3=O)cc1; 5.3
8. O=C1c2c(O)cccc2Cc2ccc(Cc3cccc(Oc4ccccc4)c3)c(O)c21; 6.35
9. Cc1ccc(Cc2ccc3c(c2O)C(=O)c2c(O)cccc2C3)cc1; 6.04
10. COc1ccc(CCCc2ccc3c(c2O)C(=O)c2c(O)cccc2C3)cc1; 6.46
11. COc1ccccc1Cc1ccc2c(c1O)C(=O)c1c(O)cccc1C2; 5.62
12. O=C1c2c(O)cccc2Cc2ccc(CCc3ccccc3)c(O)c21; 6.23
13. O=C1c2c(O)cccc2Cc2ccc(CCCc3ccc(O)cc3)c(O)c21; 5.27
14. COc1ccc(Cc2cc(O)c3c(c2)Cc2cccc(O)c2C3=O)c(OC)c1; 5.34
15. O=C1c2c(O)cccc2Cc2cc(Cc3cc(O)ccc3O)cc(O)c21; 3.2
16. O=C1c2c(O)cccc2Cc2cc(Cc3ccc(O)cc3)cc(O)c21; 4.52
17. O=C1c2c(O)cccc2Cc2ccc(Cc3ccccc3)c(O)c21; 5.61
18. O=C(c1ccccc1)c1cc(O)c2c(c1)Cc1cccc(O)c1C2=O; 4.83
19. O=C1c2c(O)cccc2Cc2cc(Cc3ccc(O)c(O)c3)cc(O)c21; 3.88
20. O=C1c2c(O)cccc2Cc2ccc(Cc3ccc(O)cc3)c(O)c21; 4.66
21. COc1ccc(OC)c(Cc2cc(O)c3c(c2)Cc2cccc(O)c2C3=O)c1; 5.17
22. Cc1ccc(C(=O)c2cc(O)c3c(c2)Cc2cccc(O)c2C3=O)cc1; 5.14
